Origin of the recorded values: paper PMC10098121

Test system: UT-SCC-8
test summary: High throughput drug screening (CellTiter-Glo, DSS)
Format: cell-based, human
condition: UT-SCC-8, 72 h, 10-100,000 nM, myogel, non-irradiated
Please respond with reported drug sensitivity score (DSS) for every item in the list.

// lookup drug sensitivity score (DSS) for NCCN1C(=O)N(CCN)C(=O)C(CCCc2ccccc2)(CCCc2ccccc2)C1=O
19,2

Then what about the compound CN(C)CCCN1C(=O)N(CCCN(C)C)C(=O)C(CCCc2ccccc2)(CCCc2ccccc2)C1=O ?
17,8

Then what about the compound NCCCCN1C(=O)N(CCCCN)C(=O)C(CCCc2ccccc2)(CCCc2ccccc2)C1=O ?
10

Then what about the compound NCCCCCN1C(=O)N(CCCCCN)C(=O)C(CCCc2ccccc2)(CCCc2ccccc2)C1=O ?
18,1

Then what about the compound CN(C)CCCCN1C(=O)N(CCCCN(C)C)C(=O)C(CCCc2ccccc2)(CCCc2ccccc2)C1=O ?
18,1

Then what about the compound C[N+](C)(C)CCCCN1C(=O)N(CCCC[N+](C)(C)C)C(=O)C(CCCc2ccccc2)(CCCc2ccccc2)C1=O ?
0

Then what about the compound NCCCCCCN1C(=O)N(CCCCCCN)C(=O)C(CCCc2ccccc2)(CCCc2ccccc2)C1=O ?
19,5

Then what about the compound CN(C)CCN1C(=O)N(CCN(C)C)C(=O)C(CCCc2ccccc2)(CCCc2ccccc2)C1=O ?
17

Then what about the compound CNCCCCN1C(=O)N(CCCCNC)C(=O)C(CCCc2ccccc2)(CCCc2ccccc2)C1=O ?
14,5

Then what about the compound NCCCN1C(=O)N(CCCN)C(=O)C(CCCc2ccccc2)(CCCc2ccccc2)C1=O ?
16,5

Then what about the compound N.N.[Cl][Pt][Cl] [Cisplatin, cisplatin, reference compound] ?
16,8

###

Test system: UT-SCC-42B
test summary: High throughput drug screening (CellTiter-Glo, DSS)
Type: cell-based, human
condition: 72 h, 10-100,000 nM, myogel, non-irradiated
experimental endpoint: drug sensitivity score (DSS)

Form field - read-out: drug sensitivity score (DSS); system: UT-SCC-42B; submitted item: CN(C)CCCCN1C(=O)N(CCCCN(C)C)C(=O)C(CCCc2ccccc2)(CCCc2ccccc2)C1=O
16,6

Then what about the molecule CNCCCCN1C(=O)N(CCCCNC)C(=O)C(CCCc2ccccc2)(CCCc2ccccc2)C1=O ?
10,2

Then what about the molecule NCCN1C(=O)N(CCN)C(=O)C(CCCc2ccccc2)(CCCc2ccccc2)C1=O ?
18,7

Then what about the molecule N.N.[Cl][Pt][Cl] [Cisplatin, cisplatin, reference compound] ?
7,7

Then what about the molecule NCCCCN1C(=O)N(CCCCN)C(=O)C(CCCc2ccccc2)(CCCc2ccccc2)C1=O ?
7,4

Then what about the molecule CN(C)CCCN1C(=O)N(CCCN(C)C)C(=O)C(CCCc2ccccc2)(CCCc2ccccc2)C1=O ?
15,7

Then what about the molecule NCCCCCCN1C(=O)N(CCCCCCN)C(=O)C(CCCc2ccccc2)(CCCc2ccccc2)C1=O ?
18,4

Then what about the molecule NCCCN1C(=O)N(CCCN)C(=O)C(CCCc2ccccc2)(CCCc2ccccc2)C1=O ?
10,1

###

System: UT-SCC-42B
test summary: High throughput drug screening (CellTiter-Glo, DSS)
Type: cell-based, human
condition: 72 h, 10-100,000 nM, myogel, non-irradiated
Method: The MPMs were screened against a panel of […] different cell lines (HSC-3, UT-SCC-8, UT-SCC-24A, UT-SCC-24B, UT-SCC-42A, UT-SCC-42B and NOF) at the High Throughput Biomedicine Unit (HTB) at the Institute for Molecular Medicine Finland (FIMM). […] Next, the plates were centrifuged for 5 min at 1,000 rpm before the luminescence signal was measured with the PHERAstar FS HT reader (BMG LABTECH GmbH, Ortenberg, Germany). […]
Please respond with reported drug sensitivity score (DSS) for every item in the list.

// lookup drug sensitivity score (DSS) for NCCCCCN1C(=O)N(CCCCCN)C(=O)C(CCCc2ccccc2)(CCCc2ccccc2)C1=O
11,5

Then what about the compound C[N+](C)(C)CCCCN1C(=O)N(CCCC[N+](C)(C)C)C(=O)C(CCCc2ccccc2)(CCCc2ccccc2)C1=O ?
0,1

Then what about the compound CN(C)CCN1C(=O)N(CCN(C)C)C(=O)C(CCCc2ccccc2)(CCCc2ccccc2)C1=O ?
12,9

###

Tested on: UT-SCC-42A
test summary: High throughput drug screening (CellTiter-Glo, DSS)
Type: cell-based, human
condition: DSS irradiated (2 Gy) minus DSS non-irradiated, >5 synergy, <–5 antagonism
Please respond with reported delta DSS (ΔDSS) for every item in the list.

// lookup delta DSS (ΔDSS) for N.N.[Cl][Pt][Cl] [Cisplatin, cisplatin, reference compound]
-0,1

Then what about the compound NCCCCN1C(=O)N(CCCCN)C(=O)C(CCCc2ccccc2)(CCCc2ccccc2)C1=O [MPM-1] ?
-0,8

Then what about the compound CNCCCCN1C(=O)N(CCCCNC)C(=O)C(CCCc2ccccc2)(CCCc2ccccc2)C1=O [MPM-4:1] ?
-0,1

Then what about the compound NCCCCCCN1C(=O)N(CCCCCCN)C(=O)C(CCCc2ccccc2)(CCCc2ccccc2)C1=O [MPM-6:0] ?
0,3
